# credit: PubChem BioAssay (NCATS)

Here, each record is paired with measured activity data.
biological target: Catechol O-methyltransferase (Homo sapiens); test: Confirmatory Screen for Target Class Profiling of Small Molecule Inhibitors of Methyltransferases (AID 1745852); conditions: MTase-Glo luminescence, SAH detection, recombinant enzyme; measured here: COMT max response; stronger effect = lower value
RECORDED_METRIC: activity (%)

> print(dat)
                               input.smiles  assay.result
1            O=C(Nc1cc2cc[nH]c2cn1)c1ccccc1         -83.5
2  Cc1cnc(Nc2ccc(CN3CCOCC3)cc2)nc1Nc1cccc(S(=O)(=O)NC(C)(C)C)c1       -0.0774
3  N#Cc1c(C2CCNCC2)cc(-c2c(O)cccc2OCC2CC2)nc1N          -9.7
4  c1cc(N[C@@H]2CCNC2)nc(-c2cnc3ccc(-c4cn[nH]c4)cn23)c1         -4.23
5  c1ccc2c(Oc3nc(Nc4ccc(N5CCOCC5)cc4)c4ncn(C5CCCCC5)c4n3)cccc2c1         0.484
6  Cn1cc(-c2cnn3c(N)c(Br)c([C@H]4CCCNC4)nc23)cn1         -1.78

* * *

system: CP268; test: qHTS profiling for inhibitors of Plasmodium falciparum proliferation (AID 504749); further: nearly all actives have a fitted effect of over 60% in size; conditions: P. falciparum in erythrocytes, SYBR Green DNA, 72 h; series mostly up to 28.7 µM
Results filed as inconclusive are left out. The source made the active and inactive calls. The call rests on the fitted dose curve; in most records, active means well fitted inhibition curve with a large enough effect; inconclusive means small, poorly fitted or top-dose-only effect; inactive means flat fitted curve, though single readings scatter.
Outcomes: class 1 = active, class 0 = inactive

MOLECULE	CLASS_NAME
CCC(C(=O)O)C1CCC(C)C(C(C)C(O)C(C)C(=O)C(CC)C2OC3(C=CC(O)[C@@]4(CC[C@](C)(C5CC[C@@](O)(CC)C(C)O5)O4)O3)C(C)CC2C)O1 (stereo partly specified)	class 1
COc1ccc([C@@H]2CNC(=O)C2)cc1OC1CCCC1	class 0
OCC(O)C(O)C(O)CO (stereo unspecified)	class 0
COc1cccc2c1C(=O)c1c(O)c3c(c(O)c1C2=O)C[C@@](O)(C(=O)CO)C[C@@H]3O[C@H]1C[C@H](N)[C@H](OC2CCCCO2)[C@H](C)O1 (stereo partly specified)	class 1
Nc1nc2c(c(=O)[nH]1)N(C=O)[C@H](CNc1ccc(C(=O)N[C@@H](CCC(=O)O)C(=O)O)cc1)CN2	class 0
COc1ccc2c(c1OC)C(=O)OC2[C@H]1c2c(cc3c(c2OC)OCO3)CCN1C (stereo partly specified)	class 0

* * *

Here, each record is paired with measured max response data.
test system: KB-3-1; assay: Cytotoxic Profiling of Annotated Libraries Using Quantitative High-Throughput Screening (AID 1296008); conditions: Five cell lines viability, CellTiter-Glo ATP luminescence, 48-72 h; stronger effect = lower value; further: on the % scale 0 is the no-effect control and ±100 the full control effect; nearly all actives have a fitted effect of over 60% in size
Results filed as inconclusive are left out.
RECORDED_METRIC: max response (%)

> print(dat)
                                    molecule  recorded.metric  quantity.unit  assay.result
 1  C[C@H]1C[C@H]2[C@@H]3CCC4=CC(=O)C=C[C@]4(C)[C@@H]3C(=O)C[C@]2(C)[C@@]1(O)C(=O)CO     max response              %           4.3
 2                     COc1ccc(C(C)=O)c(O)c1     max response              %          4.34
 3  CC(=O)ON=C1C(c2c(O)[nH]c3cc(Br)ccc23)=Nc2ccccc21     max response              %         -15.3
 4  N=c1ccn2c(n1)O[C@H]1[C@@H](O)[C@@H](CO)O[C@H]12     max response              %         -23.9
 5  COC1=C(OC)C(=O)C(CC=C(C)CCC=C(C)CCC=C(C)CCC=C(C)CCC=C(C)CCC=C(C)CCC=C(C)CCC=C(C)CCC=C(C)CCC=C(C)C)=C(C)C1=O     max response              %         -1.17
 6  CCOC(=O)C=C[C@H](C[C@@H]1CCNC1=O)NC(=O)[C@@H](CC(=O)[C@@H](NC(=O)c1cc(C)on1)C(C)C)Cc1ccc(F)cc1     max response              %          4.76
 7  O=C(NCc1ccccc1)[C@H](Cc1ccccc1)NC(=O)[C@@H]1O[C@@H]1C(=O)NCCc1ccc(O)cc1     max response              %           8.9
 8  Cc1cc(C(=O)NOCCO)c(Nc2ccc(I)cc2F)n(C)c1=O     max response              %         -2.94
 9  CC(Cc1ccc(O)c(O)c1)(NN)C(=O)O (stereo unspecified)     max response              %         -1.08
10                O=S(=O)(O)CCSSCCS(=O)(=O)O     max response              %          4.37
11  C=C(C)[C@@H]1CC[C@]2(C(=O)O)CC[C@]3(C)[C@H](CC[C@@H]4[C@@]5(C)CC[C@H](O)C(C)(C)[C@@H]5CC[C@]43C)[C@@H]12     max response              %         -12.2
